Each recorded value in this set is attributed to ChEMBL document CHEMBL1156829.

For each record, write down the corresponding CC50.
# assay-details: NOVARTIS: Cytotoxicity against human hepatocellular carcinoma cell line (Huh7)
# Assay type: toxicity, cell-based, Huh-7
# condition-set: Huh7 cells (hepatocellular carcinoma cell line)

[in] For COC(=O)CC(NC(=O)c1ccc(C)cc1)c1ccc2c(c1)OCO2 (stereo not given) , what is its reported CC50?
[out] 15 µM

[in] For "O=C(Nc1ccc(C(F)(F)F)cc1)c1ccc(NCCCN2CCCCCC2)c([N+](=O)[O-])c1" , what is its reported CC50?
[out] 21.2 µM

[in] For "Cc1ccc(O)c(NC(=O)c2cnn3c(C(F)(F)F)cc(-c4ccc(Br)cc4)nc23)c1" , what is its reported CC50?
[out] > 100 µM

[in] For "Cc1cc(Nc2ccc(Cl)c(Cl)c2)n2ncnc2n1" , what is its reported CC50?
[out] > 100 µM

[in] For "O=C(NCCc1ccccc1)c1cnc(NCCCn2ccnc2)nc1Nc1ccccc1" , what is its reported CC50?
[out] > 10 µM

[in] For c1ccc2c(c1)c1c(c3ccccc32)CN2CCCC2C1 (stereo not given) , what is its reported CC50?
[out] > 10 µM

[in] For "COc1ccc(-n2c(CNc3cc(C(F)(F)F)ccc3Cl)nnc2SCc2ccccc2Cl)cc1" , what is its reported CC50?
[out] > 100 µM

[in] For "COc1ccc(-n2c(SC(C)C)nc3sc4c(c3c2=O)CCN(C)C4)cc1" , what is its reported CC50?
[out] > 100 µM

[in] For "COC(=O)C1=C(C)N(C)C(C)=C(C(=O)OC)C1c1ccc(C)cc1" , what is its reported CC50?
[out] > 9.49 µM

[in] For "Cc1c(C(=O)Nc2ccccc2)sc2ncn(Cc3ccccc3F)c(=O)c12" , what is its reported CC50?
[out] > 10 µM

[in] For COc1cccc(C2C(C(=O)Nc3ccccc3)=C(C)N=c3sc(=Cc4c[nH]c5ccccc45)c(=O)n32)c1 (stereo not given) , what is its reported CC50?
[out] > 100 µM

[in] For "COc1cc(/C=C2\CC/C(=C\c3cc(OC)c(OC)c(OC)c3)C2=O)cc(OC)c1OC" , what is its reported CC50?
[out] 0.873 µM

[in] For "Clc1ccc2c(N3CCC(n4cccc4)CC3)ccnc2c1" , what is its reported CC50?
[out] > 100 µM

[in] For "CC(C)(c1ccc(Oc2ccc(NC(=O)C(F)(F)F)cc2)cc1)c1cccc(Oc2ccc(NC(=O)C(F)(F)F)cc2)c1" , what is its reported CC50?
[out] > 10 µM

[in] For "O=C(Nc1ccc(-c2nc3ccccc3[nH]2)cc1)c1cccc(C(=O)Nc2ccc(-c3nc4ccccc4[nH]3)cc2)n1" , what is its reported CC50?
[out] 31.7 µM

[in] For "CCCN(CCC)CCCNc1ccc(C(=O)Nc2cccc(OC)c2)cc1[N+](=O)[O-]" , what is its reported CC50?
[out] 24 µM

[in] For CC(=O)N1c2ccccc2NC2=C(C(=O)CCC2)C1c1ccc([N+](=O)[O-])cc1 (stereo not given) , what is its reported CC50?
[out] > 10 µM

[in] For "Nc1nc(N)c2cc(S(=O)(=O)N3CCCC3)ccc2n1" , what is its reported CC50?
[out] 12.9 µM

[in] For "CCN1C(=Cc2sc3ccccc3[n+]2C)C=Cc2ccc(C)cc21" , what is its reported CC50?
[out] > 11.8 µM

[in] For CC1CN(C(=O)c2sc3cccc(F)c3c2Cl)CC(C)O1 (stereo not given) , what is its reported CC50?
[out] > 100 µM

* * *

# Tested on: Plasmodium falciparum
# assay-details: NOVARTIS: Inhibition of Plasmodium falciparum 3D7 (drug-susceptible) proliferation in erythrocyte-based infection assay
# Assay type: functional, organism-based
# condition-set: Plasmodium falciparum, 3D7
quantity-name: pEC50
Scale: negative log10 of molar concentration, which is what pEC50 denotes.

[in] For CCOC(=O)C1=C(C)NC2=C(C(=O)CC(c3ccc(OC)c(OC)c3)C2)C1c1ccc(Br)cc1 (stereo not given) , what is its reported pEC50?
[out] 7.74

[in] For "O=[N+]([O-])c1ccc2nc(Nc3ccc(Cl)c(Cl)c3)c(Nc3ccc(Cl)c(Cl)c3)nc2c1" , what is its reported pEC50?
[out] 5.14

[in] For "O=C(CCl)Nc1ccc(Cl)cc1" , what is its reported pEC50?
[out] 6.26

[in] For CSC1=NC(=Nc2ccccc2C)C2(CCC(C(C)(C)C)CC2)N1c1ccc(O)cc1 (stereo not given) , what is its reported pEC50?
[out] 6.61

[in] For "COc1ccc(C=NNc2nc3ccccc3[nH]2)cc1OC" , what is its reported pEC50?
[out] 6.61

[in] For "OCCNc1nc(Nc2ccc(Cl)c(Cl)c2)nc2ccccc12" , what is its reported pEC50?
[out] 6.85

[in] For "CCCNC(=O)CCCCCSc1nc2ccccc2c(=O)n1-c1ccc(F)cc1" , what is its reported pEC50?
[out] 6.11

[in] For "COc1ccc2c(c1)[nH]c1c(N3CCN(C(c4ccccc4)c4ccccc4)CC3)ncnc12" , what is its reported pEC50?
[out] 6.47

* * *

# Test system: Plasmodium falciparum
# assay-details: NOVARTIS: Inhibition of Plasmodium falciparum W2 (drug-resistant) proliferation in erythrocyte-based infection assay
# Assay type: functional, organism-based
# condition-set: Plasmodium falciparum, W2; read-out: EC50
For each record, write down the corresponding pEC50.
Scale: negative log10 of molar concentration, which is what pEC50 denotes.

[in] Hello, I am looking for reported pEC50 with Plasmodium falciparum for "CC(=O)Nc1ccc(NC2=C(N3CCCCC3)C(=O)c3ccccc3C2=O)cc1" . Could you help?
[out] 6.96

[in] Hello, I am looking for reported pEC50 with Plasmodium falciparum for "CCc1ccc(NC(=O)c2sc3nc(N)c(C#N)c(-c4ccc(OC)c(OC)c4)c3c2N)cc1" . Could you help?
[out] 5.40

[in] Hello, I am looking for reported pEC50 with Plasmodium falciparum for "Cc1ccc(NC(=O)c2sc3nc4c(c(-c5ccc(C)cc5)c3c2N)CCC4)cc1" . Could you help?
[out] 5.05

[in] Hello, I am looking for reported pEC50 with Plasmodium falciparum for "CN1CC=C(/C=C/c2c[nH]c3ccccc23)CC1" . Could you help?
[out] 7.00

[in] Hello, I am looking for reported pEC50 with Plasmodium falciparum for CCOc1ccc2[nH]c(=O)c(C(c3nnnn3CCOC)N3CCCC3)cc2c1 (stereo unspecified) . Could you help?
[out] 5.98

[in] Hello, I am looking for reported pEC50 with Plasmodium falciparum for COc1ccc(N2CCN(C(CNC(=O)CC(C)C)c3ccco3)CC2)cc1 (stereo unspecified) . Could you help?
[out] 6.12

[in] Hello, I am looking for reported pEC50 with Plasmodium falciparum for CCCOC(=O)C1=C(C)NC2=C(C(=O)CC(c3ccc(OC)cc3)C2)C1c1ccc(Cl)cc1Cl (stereo unspecified) . Could you help?
[out] 7.79

[in] Hello, I am looking for reported pEC50 with Plasmodium falciparum for "CCN(CC)C(=O)COc1ccccc1CNCc1ccccc1" . Could you help?
[out] 5.84

[in] Hello, I am looking for reported pEC50 with Plasmodium falciparum for "Cc1ccc(C)c(-c2csc(Nc3ccc(C)c(C)c3)n2)c1" . Could you help?
[out] 6.94

[in] Hello, I am looking for reported pEC50 with Plasmodium falciparum for "CCOC(=O)C1(Cc2ccc(OC)cc2)CCN(C(=O)c2scc3c2OCCO3)CC1" . Could you help?
[out] 6.70

[in] Hello, I am looking for reported pEC50 with Plasmodium falciparum for "COc1ccc(N2C(N)=NC(N)=NC23CCCC3)cc1" . Could you help?
[out] 5.20

[in] Hello, I am looking for reported pEC50 with Plasmodium falciparum for "O=C(NCc1ccco1)c1ccc(OC2CCN(Cc3ccncc3)CC2)c(Cl)c1" . Could you help?
[out] 6.37

[in] Hello, I am looking for reported pEC50 with Plasmodium falciparum for "CCSc1ccc2ccccc2[n+]1CC" . Could you help?
[out] 6.64

[in] Hello, I am looking for reported pEC50 with Plasmodium falciparum for "c1ccc(-c2csc(Nc3nc4cc5c(cc4s3)OCO5)n2)nc1" . Could you help?
[out] 6.38

[in] Hello, I am looking for reported pEC50 with Plasmodium falciparum for CCOc1ccc(C2C(=O)N(C3CCCCC3)CC(=O)N2Cc2ccc(F)cc2)cc1OC (stereo unspecified) . Could you help?
[out] 5.38

[in] Hello, I am looking for reported pEC50 with Plasmodium falciparum for "COc1cc(OC)cc(C(=O)NCc2n[nH]c(=S)n2-c2cccc(C(F)(F)F)c2)c1" . Could you help?
[out] 6.58

[in] Hello, I am looking for reported pEC50 with Plasmodium falciparum for "O=C(C=Cc1ccc(Br)cc1)NC(=O)c1ccccc1O" . Could you help?
[out] 5.69
